System: miR-122a
TEST_PROTOCOL: Melting temperature (Tm) of LNA anti-miR/miR-122a RNA duplex
Format: physicochemical, human
CONDITION_PARAMETERS: Table 2; towards synthetic miR-122a RNA oligonucleotide with phosphorothioate linkages; PS backbone
Strand notation (5' to 3'): a small letter for the sugar, then the base; units joined by * are phosphorothioate-linked, units joined directly phosphodiester-linked; [ ] holds rarer units or linkages, { } end groups; capitals alone tell only the bases. l = locked nucleic acid (LNA); [5mC] = 5-methylcytosine; d = 2'-deoxy (DNA)
MEASURE_NAME: Tm (° C.) (°C)
Field format: number, assumed °C, no unit text.

Use the examples below as a reference point.
State the recorded Tm (° C.) for this entry: 5′-CcAttGTcaCaCtCC-3′ (antisense CCATTGTCACACTCC; sugars from the 5' end ldlddllddldldll, backbone and methylation of C not given here) [SEQ ID NO: 63]
78

# get_value(readout='Tm (° C.)', item= 5′-CCAttgtcacacTCCa-3′ (antisense l[5mC]*l[5mC]*lA*dT*dT*dG*dT*dC*dA*dC*dA*dC*lT*l[5mC]*l[5mC]*dA) [SEQ ID NO: 62] )
69

***
Record request: Tm (° C.) value, item 5′-ccAttGtcAcaCtcCa-3′ (antisense CCATTGTCACACTCCA; sugars from the 5' end ddlddlddlddlddld, backbone and methylation of C not given here) [SEQ ID NO: 61]
69
